# Target entity: Androgen receptor (Homo sapiens, UniProt P10275, T878A)
# Test summary: Binding affinity to bicalutamide-resistant Androgen receptor T878A mutant (unknown origin)
Measured endpoint: Ki

Lab request: please report Ki under test system Androgen receptor (Homo sapiens, UniProt P10275, T878A) for `Cn1cc(N(Cc2ccccc2)c2ccc([N+](=O)[O-])cc2)cc1C(=O)N1CCCC1`
6 nM

---

# Target entity: Androgen receptor (Homo sapiens, UniProt P10275)
# Sequence (P10275 whole entry): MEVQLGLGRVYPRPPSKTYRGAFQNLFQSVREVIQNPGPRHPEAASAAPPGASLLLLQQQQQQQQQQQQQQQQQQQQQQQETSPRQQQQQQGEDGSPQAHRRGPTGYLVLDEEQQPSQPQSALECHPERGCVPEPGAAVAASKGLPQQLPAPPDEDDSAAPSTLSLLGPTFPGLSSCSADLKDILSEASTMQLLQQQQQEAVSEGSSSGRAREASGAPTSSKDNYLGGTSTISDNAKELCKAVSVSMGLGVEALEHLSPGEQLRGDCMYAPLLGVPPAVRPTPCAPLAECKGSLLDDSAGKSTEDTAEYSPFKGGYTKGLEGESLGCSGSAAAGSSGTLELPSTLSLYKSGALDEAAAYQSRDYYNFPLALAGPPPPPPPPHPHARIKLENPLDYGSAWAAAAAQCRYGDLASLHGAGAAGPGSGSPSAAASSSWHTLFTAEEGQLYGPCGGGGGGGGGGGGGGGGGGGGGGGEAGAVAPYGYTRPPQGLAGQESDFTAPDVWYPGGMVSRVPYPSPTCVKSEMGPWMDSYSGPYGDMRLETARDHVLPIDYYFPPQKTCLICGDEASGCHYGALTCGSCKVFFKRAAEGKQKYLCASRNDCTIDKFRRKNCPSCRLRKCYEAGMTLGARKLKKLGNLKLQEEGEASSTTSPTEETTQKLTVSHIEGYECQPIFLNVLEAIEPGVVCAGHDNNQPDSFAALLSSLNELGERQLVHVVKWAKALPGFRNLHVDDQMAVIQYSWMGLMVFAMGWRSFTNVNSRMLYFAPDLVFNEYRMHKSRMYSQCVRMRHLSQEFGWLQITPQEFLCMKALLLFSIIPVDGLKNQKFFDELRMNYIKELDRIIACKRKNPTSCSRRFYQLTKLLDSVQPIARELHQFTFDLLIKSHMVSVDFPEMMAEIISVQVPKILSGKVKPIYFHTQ
# Test summary: Agonist activity to human Androgen receptor in African green monkey COS-7 cells measured by luciferase reporter assay
# Assay type: cell-based
Measured endpoint: EC50 (nM)
Answer format: numeric, nM implied, no suffix.

Entry `Cc1c(N2CC[C@](C)(O)[C@@H]2C)ccc(C#N)c1Cl` : reported EC50 = ?
0.29

Entry `C[C@H]1[C@@H](O)CCN1c1ccc(C#N)c2ccccc12` : reported EC50 = ?
0.32

The values you see were collected from ChEMBL document CHEMBL5137058.
